biological target: Mycobacterium thermoresistible (Mtr) LpqY (Mycolicibacterium thermoresistibile); type: binding; details: single dose MST screen against LpqY
Sequence (G7CES0 29-471): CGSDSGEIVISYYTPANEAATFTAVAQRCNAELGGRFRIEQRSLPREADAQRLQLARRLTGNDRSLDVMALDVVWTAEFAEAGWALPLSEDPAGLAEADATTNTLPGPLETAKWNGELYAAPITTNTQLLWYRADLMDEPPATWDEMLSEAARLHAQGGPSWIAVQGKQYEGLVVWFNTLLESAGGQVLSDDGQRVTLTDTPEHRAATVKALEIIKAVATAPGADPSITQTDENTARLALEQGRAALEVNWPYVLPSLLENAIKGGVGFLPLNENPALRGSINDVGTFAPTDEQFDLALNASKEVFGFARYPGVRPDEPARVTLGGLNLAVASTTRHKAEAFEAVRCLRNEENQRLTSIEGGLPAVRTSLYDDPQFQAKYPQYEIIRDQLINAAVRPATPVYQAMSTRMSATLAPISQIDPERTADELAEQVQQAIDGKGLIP
Rule: measured Pathogen Box screen signal/noise ratio below 2 gets YES; anything equal to or greater than 2 gets NO.

Study these solved cases before continuing.
> print(dat)
                                   molecule                                    system  category
1  FC(F)(F)c1ccc(N(c2cccnc2)C2CCN(c3ccc(C(F)(F)F)cn3)CC2)cc1 [MMV689243]  Mycobacterium thermoresistible (Mtr) LpqY (Mycolicibacterium thermoresistibile)       YES
2  COc1ccc(OC)c(NCc2ccc3nc(N)nc(N)c3c2Cl)c1 [MMV675968]  Mycobacterium thermoresistible (Mtr) LpqY (Mycolicibacterium thermoresistibile)        NO
3  O=C(CN1CCOCC1)Nc1ccc2ncnc(Nc3ccc(OCc4cccc(F)c4)c(Cl)c3)c2c1 [MMV688274]  Mycobacterium thermoresistible (Mtr) LpqY (Mycolicibacterium thermoresistibile)       YES
4  Nc1nccc2ccc(-c3ccc4nccn4c3)cc12 [MMV023233]  Mycobacterium thermoresistible (Mtr) LpqY (Mycolicibacterium thermoresistibile)       YES
5  CC(=O)NC[C@H]1CN(c2ccc(N3CCSCC3)c(F)c2)C(=O)O1 [MMV688756]  Mycobacterium thermoresistible (Mtr) LpqY (Mycolicibacterium thermoresistibile)       YES
6  COC(=O)Nc1nc2cc(C(=O)c3ccccc3)ccc2[nH]1 [MMV003152]  Mycobacterium thermoresistible (Mtr) LpqY (Mycolicibacterium thermoresistibile)       YES

hey, is Pathogen Box screen signal/noise ratio for O=C(C(Cc1c[nH]c2ccccc12)NS(=O)(=O)c1ccc(Cl)cc1)N1CCCCC1 (stereo not shown) [MMV085210] lower than 2 or not? NO
